Tested on: influenza B (B/Shanghai/361/2002)
Ends that are not written are not given here.

- substance: "VEDTKIDLWSYNAELL-NH2 [F3]"
  IC50: "< 5 nM"
